System: MCF7 breast
Assay: NCI tumour cell line growth inhibition, 48 h
observationType: TGI

- compound: "COc1cc(CNC(=S)CCCCCCCCCCC(C)C)ccc1O"
  observationType: "TGI"
  value: "> 100 µM"
- compound: "Cn1ccc2c(c1=O)C(=O)OC2(C)C"
  observationType: "TGI"
  value: "> 100 µM"

Attention now turns to another entry.
## Input # query: TGI of entry COC(=O)C1CC23C=CCN4CC(C2C)C2(c5ccccc5NC12)C43 (stereo not drawn)
## Output > 100 µM

====

System: COLO 205 colon
Experiment: NCI tumour cell line growth inhibition, 48 h
Quick list: TGI per entry.

Worked examples, 6 molecules total:
- molecule: "CCCCCCNC(=O)Oc1ccc(/C(=C(/C)Cc2ccc(OC)cc2)c2ccc(OCCN(C)C)cc2)cc1"
  TGI: "9.79 µM"
- molecule: "Clc1nc2c(C#Cc3ccccc3)ncnc2n1C1CCCCO1 (stereo not drawn)"
  TGI: "32.7 µM"
- molecule: "CC1(O)CCC2(C)C(=O)C1(C)CCC21OCCO1 (stereo not drawn)"
  TGI: "> 100 µM"
- molecule: "C[C@]12CC[C@H]3[C@@H](CC[C@]4(O)C[C@@H](O)CC[C@]34CO)[C@@]1(O)CC[C@@H]2C1=CC(=O)OC1"
  TGI: "29.7 µM"
- molecule: "COc1cc(/C=C2\\CC3C4CC=C5C[C@@H](O)CC[C@]5(C)C4CC[C@]3(C)C2=O)ccc1OCCCn1ccnc1 (stereo partly drawn)"
  TGI: "> 100 µM"
- molecule: "C=CCc1ccccc1C1CC2(C(=O)OC)OC1C(C(=O)OC)=C2C(=O)OC (stereo not drawn)"
  TGI: "> 10 µM"

## Input # query: TGI of entry `O=C(O)c1cccc(/C=C/c2ccccc2)c1`
## Output > 100 µM

## Input # query: TGI of entry `CSc1nsc(S/C=C\C(=O)c2ccc(C)cc2)n1`
## Output > 63.7 µM

====

Tested on: SK-MEL-28 melanoma
Test: NCI tumour cell line growth inhibition, 48 h
Quick list: TGI per entry.

Worked examples, 5 compounds total:
- compound: "COc1cc2c3c(ncc2c(OC)c1OC)-c1cc2c(cc1C3)OCO2"
  testedSystem: "SK-MEL-28 melanoma"
  TGI: "> 100 µM"
- compound: "Cc1c(C(=O)CC(=O)C(=O)Nc2cc(Cl)ccc2Cl)[n+](=O)c2ccccc2n1[O-]"
  testedSystem: "SK-MEL-28 melanoma"
  TGI: "> 100 µM"
- compound: "N#C/C(C(=O)Nc1ccccc1)=C(/N)N1CCCCC1"
  testedSystem: "SK-MEL-28 melanoma"
  TGI: "> 100 µM"
- compound: "Cc1ccc(NC2=N/C(=C/c3ccco3)C(Cl)=N2)cc1"
  testedSystem: "SK-MEL-28 melanoma"
  TGI: "> 100 µM"
- compound: "O=C(O)COc1cc(-c2ccccc2)nc2ccccc12"
  testedSystem: "SK-MEL-28 melanoma"
  TGI: "> 100 µM"

## Input # query: TGI of entry `COc1ccccc1NC(=O)C1=C(C)NC(C)=C(C(=O)Nc2ccccc2OC)C1c1ccc(N(C)C)cc1`
## Output 58 µM

## Input # query: TGI of entry `COC(=O)[C@](C)(Cc1ccccc1)NC(=O)[C@@H](C)N1[C@@H](c2ccccc2)COC1(C)C`
## Output > 100 µM

## Input # query: TGI of entry `COC(=O)[C@H]1[C@H]2C[C@@H]3c4[nH]c5cc(OC)ccc5c4CCN3C[C@H]2C[C@@H](OC(=O)/C=C/c2cc(OC)c(OC)c(OC)c2)[C@@H]1OC`
## Output 28 µM

## Input # query: TGI of entry `CCn1c(=O)c2c3ccc(OC(C)=O)cc3[nH]c2c2ccc(OC(C)=O)cc21`
## Output > 100 µM

## Input # query: TGI of entry `O=C(O)Cc1ccccc1CCc1ccccc1Cl`
## Output > 100 µM

## Input # query: TGI of entry `Cn1cc(C2=C(c3cn(C)c4cc(N)ccc34)C(=O)NC2=O)c2ccccc21`
## Output 18.4 µM

## Input # query: TGI of entry COC(=O)c1cc(C)ccc1C1CN=NC12Cc1c(C)cc(C)cc1C2=O (centres undefined)
## Output > 100 µM

====

Test system: SK-OV-3 ovarian
Experiment: NCI tumour cell line growth inhibition, 48 h
Quick list: GI50 per entry.

Worked examples, 8 compounds total:
- compound: "COc1ccc([C@@H](O)c2cc(-c3ncnc4cc(N5CCOCC5)ccc34)c(F)cc2Cl)nn1"
  GI50: "1270 nM"
- compound: "Cc1cc2nc(-c3c(N)ncc(C#N)c3-c3ccc(Cl)cc3)[nH]c2cc1C"
  GI50: "11900 nM"
- compound: "COc1cc2c3c(ncc2c(OC)c1OC)-c1cc2c(cc1C3)OCO2"
  GI50: "21600 nM"
- compound: "COc1ccc(/C=C\\c2cc(OC)c(OC)c(OC)c2)c(NS(=O)(=O)c2ccc(Cl)cc2)c1O"
  GI50: "229 nM"
- compound: "CCCCN(CC)c1ncnc2ccc(Br)cc12"
  GI50: "18800 nM"
- compound: "C[PH+](c1nc2ccccc2nc1[PH+](C)C(C)(C)C)C(C)(C)C.C[PH+](c1nc2ccccc2nc1[PH+](C)C(C)(C)C)C(C)(C)C.[Au+].[Cl-] (centres undefined)"
  GI50: "29.3 nM"
- compound: "Oc1c(CN2CCCC2)cc(CSCc2ccccc2)c2cccnc12"
  GI50: "666 nM"
- compound: "CC(=O)c1cc(-c2ccccc2N)n(-c2ccc3c(c2)OCO3)c1C"
  GI50: "292 nM"

## Input # query: GI50 of entry `Cc1nn(CNc2ccccc2C(F)(F)F)c(=S)n1/N=C/c1ccc(F)cc1`
## Output > 100000 nM

====

Test system: HCT-15 colon
Assay: NCI tumour cell line growth inhibition, 48 h; in the data active means GI50 below about 0.43 µM; inactive means the rest
Choose one outcome from this list and give only that: 1 for active, -1 for inactive

# count of solved cases: 3
- compound: "CSc1nsc(S/C=C\\C(=O)c2ccc(C)cc2)n1"
  classification: -1
- compound: "COc1nc(C)cc2c(=O)n(-c3ccccc3)n(CC(O)CN3CCN(c4ccc(Cl)cc4)CC3)c(=O)c12 (centres undefined)"
  classification: -1
- compound: "COC(=O)c1cc(-c2ccc(OC)cc2)[nH]c1N/N=C/c1c(Cl)cccc1Cl"
  classification: 1

## Input Answer briefly: the call reported for CC12CC=CCC1CCC1C2CCC2(C)C(c3ccc(=O)oc3)CCC12O (centres undefined) in this assay.
## Output 1

====

Test system: RPMI-8226 leukemia
Experiment: NCI tumour cell line growth inhibition, 48 h
observationType: TGI

Worked examples, 5 compounds total:
- compound: "Cc1ccc(/C=N\\NC(=O)c2ccncc2)s1"
  value: "> 100 µM"
- compound: "COC(=O)[C@@H]1C=C[C@H](NC(C)=O)C1"
  value: "> 100 µM"
- compound: "Cc1c(Cl)cccc1NC(=O)/C(Cl)=C(\\Cl)C(=O)O"
  value: "56.5 µM"
- compound: "O=C(CSc1nc(-c2ccccc2)c(-c2ccccc2)[nH]1)NNC(=S)Nc1ccccc1"
  value: "> 100 µM"
- compound: "CCCCN(CC)c1ncnc2ccc(Br)cc12"
  value: "22.1 µM"

Attention now turns to another entry.
## Input # query: TGI of entry COc1ccc(NC(=O)CC(=O)N2N=C(N(c3ccccc3)c3ccccc3)CC2c2ccccc2)cc1 (stereo unspecified)
## Output > 100 µM

====

Tested on: EKVX NSCLC
Test: NCI tumour cell line growth inhibition, 48 h
observationType: TGI

Worked examples, 4 compounds total:
- compound: "CCOC(=O)C1=C(Nc2ccc(Cl)c(Cl)c2)OC/C1=N\\NC(=O)Cc1ccccc1"
  TGI: "> 100 µM"
- compound: "C/C=C(/C)c1cnc(CC(C)C)c(=O)[nH]1"
  TGI: "> 100 µM"
- compound: "O=C(N/N=C/c1ccc(Cl)cc1)c1[nH]c2ccc(Cl)cc2c1-c1ccccc1"
  TGI: "> 100 µM"
- compound: "Cc1c(C#N)c(=N)oc2ccccc12"
  TGI: "> 100 µM"

Attention now turns to another entry.
## Input # get_value(readout= TGI, system= EKVX NSCLC) for `O=C(O)Cc1ccccc1CCc1ccccc1Cl`
## Output > 100 µM

====

Tested on: CCRF-CEM leukemia
Assay: NCI tumour cell line growth inhibition, 48 h; in the data active means GI50 below about 0.43 µM; inactive means the rest
Choose one outcome from this list and give only that: Yes for active, No for inactive

# count of solved cases: 8
- compound: "CCN(CC)CCOc1c(OC)c(Br)cc2c(C)c(C(=O)OC)oc12"
  classification: "Yes"
- compound: "COc1nc(C)cc2c(=O)n(-c3ccccc3)n(CC(O)CN3CCN(c4ccc(Cl)cc4)CC3)c(=O)c12 (stereo unspecified)"
  classification: "No"
- compound: "CNCCNc1nc2ccccc2c2c(=O)c3cc(OC)ccc3sc12"
  classification: "No"
- compound: "C/C(=N\\NC(=S)N1CCN(c2ccccn2)CC1)c1nccs1"
  classification: "Yes"
- compound: "CCCCNC(=O)Oc1ccc(/C(=C(/CC)Cc2ccccc2)c2ccc(OCCN3CCCCCC3)cc2)cc1"
  classification: "No"
- compound: "CCCCCCNC(=O)n1cc(F)c(=O)[nH]c1=O"
  classification: "No"
- compound: "CCOC(=O)Nc1nc2cc(OCC)ccc2s1"
  classification: "No"
- compound: "CC[C@H](Nc1nc(N)nc(C2CC2)c1C#N)c1nc2cccc(NCc3ccc(C(=O)NO)cc3)c2c(=O)n1-c1ccccc1"
  classification: "No"

Please look at the following compound next.
## Input Answer briefly: the call reported for `COc1ccc([C@@H](O)c2cc(-c3ncnc4cc(N5CCOCC5)ccc34)c(F)cc2Cl)nn1` in this assay.
## Output No
